target.or.system: Bile acid receptor (Mus musculus, UniProt Q60641)
Sequence (Q60641 whole entry): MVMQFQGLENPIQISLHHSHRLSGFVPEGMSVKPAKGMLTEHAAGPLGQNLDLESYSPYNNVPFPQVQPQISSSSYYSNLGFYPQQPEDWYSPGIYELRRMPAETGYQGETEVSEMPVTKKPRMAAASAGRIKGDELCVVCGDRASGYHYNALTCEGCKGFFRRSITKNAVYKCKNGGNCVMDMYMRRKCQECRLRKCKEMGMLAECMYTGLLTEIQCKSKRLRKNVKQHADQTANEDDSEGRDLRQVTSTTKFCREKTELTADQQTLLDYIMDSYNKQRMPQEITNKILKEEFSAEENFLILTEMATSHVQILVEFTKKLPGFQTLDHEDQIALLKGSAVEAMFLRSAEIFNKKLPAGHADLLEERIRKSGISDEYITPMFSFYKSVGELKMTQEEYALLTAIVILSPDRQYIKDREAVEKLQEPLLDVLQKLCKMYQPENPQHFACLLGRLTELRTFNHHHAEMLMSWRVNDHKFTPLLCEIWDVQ
method.summary: Agonist activity at mouse chimeric FXR assessed as receptor transactivation by luciferase transcriptional reporter gene assay
measured.quantity: pEC50
# reply with the number alone; pEC50 is -log10 of concentration in mol/L

Example cases with answers are listed next.
- input.smiles: "COc1ccccc1-c1noc(C(C)C)c1COc1ccc(/C=C/c2cccc(C(=O)O)c2)c(Cl)c1"
  pEC50: 5.00
- input.smiles: "COc1ccc(Cl)c(-c2noc(C(C)C)c2COc2ccc(-c3ccc4c(C(=O)O)cn(C)c4c3)c(C)c2)n1"
  pEC50: 5.70
- input.smiles: "Cc1cc(OCc2c(-c3c(Cl)ccc(=O)n3C)noc2C(C)C)ccc1-c1ccc2c(C(=O)O)cn(C)c2c1"
  pEC50: 5.40
- input.smiles: "Cc1cc(OCc2c(-c3c(Cl)cncc3Cl)noc2C(C)C)ccc1-c1ccc2c(C(=O)O)cn(C)c2c1"
  pEC50: 5.52
- input.smiles: "Cc1cc(OCc2c(-c3ccn(C)c(=O)c3Cl)noc2C(C)C)ccc1-c1ccc2c(C(=O)O)cn(C)c2c1"
  pEC50: 5.22
- input.smiles: "Cc1cc(OCc2c(-c3cc[nH]c(=O)c3Cl)noc2C(C)C)ccc1-c1ccc2c(C(=O)O)cn(C)c2c1"
  pEC50: 5.15

Fill in: Bile acid receptor (Mus musculus, UniProt Q60641) pEC50 for CC(C)c1onc(-c2c(Cl)cccc2Cl)c1COc1ccc(/C=C/c2cccc(C(=O)O)c2)c(Cl)c1 = 5.70

Fill in: Bile acid receptor (Mus musculus, UniProt Q60641) pEC50 for CC(C)c1onc(-c2c(Cl)cncc2Cl)c1COc1ccc(/C=C/c2cccc(C(=O)O)c2)c(Cl)c1 = 4.96
